experimentalTarget: Hepatocyte growth factor receptor (Homo sapiens, UniProt P08581, Y1230H)
testDetails: Inhibition of recombinant human MET A1209G/V1290L/Y1248H triple mutant (974 to end residues) using KKKGQEEEYVFIE as substrate incubated for 40 mins in presence of [gamma-33ATP by radiometric scintillation counting analysis
assayEndpoint: IC50

q: Consider the compound CN(C)c1ccc(C(=O)Nc2cccc(NC(=O)COc3ccc4c(=O)ccoc4c3)c2)cc1 . State its measured IC50.
a: > 10 µM

---

experimentalTarget: Tyrosine-protein kinase JAK1 (Homo sapiens, UniProt P23458)
Sequence (P23458 whole entry): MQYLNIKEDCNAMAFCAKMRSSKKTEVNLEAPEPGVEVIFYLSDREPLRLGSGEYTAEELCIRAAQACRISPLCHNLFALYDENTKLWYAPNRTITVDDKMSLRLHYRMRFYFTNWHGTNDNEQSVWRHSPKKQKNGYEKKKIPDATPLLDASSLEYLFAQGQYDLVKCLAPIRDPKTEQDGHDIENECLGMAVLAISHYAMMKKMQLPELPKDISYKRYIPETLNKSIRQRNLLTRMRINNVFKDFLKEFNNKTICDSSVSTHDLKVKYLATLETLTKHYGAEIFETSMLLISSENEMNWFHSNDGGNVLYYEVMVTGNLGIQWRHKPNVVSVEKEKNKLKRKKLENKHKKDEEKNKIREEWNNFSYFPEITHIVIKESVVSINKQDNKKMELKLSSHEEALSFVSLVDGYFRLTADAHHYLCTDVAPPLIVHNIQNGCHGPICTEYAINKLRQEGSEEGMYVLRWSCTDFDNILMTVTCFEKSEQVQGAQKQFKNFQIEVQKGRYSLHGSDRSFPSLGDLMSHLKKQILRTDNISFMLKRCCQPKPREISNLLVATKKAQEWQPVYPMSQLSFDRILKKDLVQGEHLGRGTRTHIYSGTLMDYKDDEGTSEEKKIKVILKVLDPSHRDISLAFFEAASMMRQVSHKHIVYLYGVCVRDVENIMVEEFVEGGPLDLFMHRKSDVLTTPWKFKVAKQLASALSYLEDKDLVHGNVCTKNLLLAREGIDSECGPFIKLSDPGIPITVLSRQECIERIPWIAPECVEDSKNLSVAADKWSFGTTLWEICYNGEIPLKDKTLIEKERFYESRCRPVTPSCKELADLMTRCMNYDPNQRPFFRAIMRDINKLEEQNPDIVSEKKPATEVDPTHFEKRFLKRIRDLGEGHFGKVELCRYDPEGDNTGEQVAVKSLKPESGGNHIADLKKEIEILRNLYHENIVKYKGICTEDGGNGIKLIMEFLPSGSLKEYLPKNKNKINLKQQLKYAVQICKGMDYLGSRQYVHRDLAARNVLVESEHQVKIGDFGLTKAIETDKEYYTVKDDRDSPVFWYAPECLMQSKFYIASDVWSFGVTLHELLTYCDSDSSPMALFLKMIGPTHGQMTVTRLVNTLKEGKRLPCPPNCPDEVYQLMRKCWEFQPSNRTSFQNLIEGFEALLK
testDetails: Inhibition of human recombinant JAK1 (866 to end residues) using GEEPLYWSFPAKK as substrate after 40 mins by [gamma-33ATP] by radiometric scintillation counting analysis
assayEndpoint: IC50

q: Indicate its recorded IC50; the compound in question is CN(C)c1ccc(C(=O)Nc2cccc(NC(=O)COc3ccc4c(=O)ccoc4c3)c2)cc1
a: > 10 µM

---

experimentalTarget: cGMP-dependent protein kinase 1 (Homo sapiens)
Sequence (Q13976 whole entry): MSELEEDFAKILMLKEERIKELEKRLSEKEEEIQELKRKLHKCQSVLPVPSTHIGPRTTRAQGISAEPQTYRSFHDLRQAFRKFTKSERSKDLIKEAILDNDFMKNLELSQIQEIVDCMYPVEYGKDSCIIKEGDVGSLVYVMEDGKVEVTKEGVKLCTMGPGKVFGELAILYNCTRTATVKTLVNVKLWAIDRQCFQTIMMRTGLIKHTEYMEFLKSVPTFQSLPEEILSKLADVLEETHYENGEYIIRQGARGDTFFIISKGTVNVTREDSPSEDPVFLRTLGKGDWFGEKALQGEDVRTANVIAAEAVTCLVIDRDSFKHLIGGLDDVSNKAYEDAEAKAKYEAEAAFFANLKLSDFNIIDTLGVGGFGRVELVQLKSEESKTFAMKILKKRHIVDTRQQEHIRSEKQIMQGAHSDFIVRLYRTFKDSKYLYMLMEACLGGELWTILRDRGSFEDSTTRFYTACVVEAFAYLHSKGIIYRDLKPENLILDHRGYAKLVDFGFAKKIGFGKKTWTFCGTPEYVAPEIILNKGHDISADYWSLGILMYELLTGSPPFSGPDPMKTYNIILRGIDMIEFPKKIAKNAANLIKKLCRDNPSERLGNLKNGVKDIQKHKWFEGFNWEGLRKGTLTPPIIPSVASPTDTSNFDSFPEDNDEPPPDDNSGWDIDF
testDetails: Inhibition of recombinant full length human PKG1alpha using RRRLSFAEPG as substrate incubated for 40 mins in presence of [gamma-33P]ATP and 10 uM ATP by radiometric scintillation counting analysis
assayEndpoint: IC50 (nM)
Only the number, expressed in nM, is required.

q: Please supply the value of reported IC50 for the item CN(C)c1ccc(C(=O)Nc2cccc(NC(=O)COc3ccc4c(=O)ccoc4c3)c2)cc1
a: 517

---

experimentalTarget: Hepatocyte growth factor receptor (Homo sapiens, UniProt P08581, D1228N)
testDetails: Inhibition of recombinant human MET A1209G/V1290L/D1246N triple mutant (974 to end residues) using KKKGQEEEYVFIE as substrate incubated for 40 mins in presence of [gamma-33ATP by radiometric scintillation counting analysis
assayEndpoint: IC50

q: Provide one value: measured IC50 of CN(C)c1ccc(C(=O)Nc2cccc(NC(=O)COc3ccc4c(=O)ccoc4c3)c2)cc1
a: > 10 µM

---

Quick list: IC50 per entry.
experimentalTarget: UniProtKB Q13464
Sequence (Q13464 whole entry, the tested form may be a part): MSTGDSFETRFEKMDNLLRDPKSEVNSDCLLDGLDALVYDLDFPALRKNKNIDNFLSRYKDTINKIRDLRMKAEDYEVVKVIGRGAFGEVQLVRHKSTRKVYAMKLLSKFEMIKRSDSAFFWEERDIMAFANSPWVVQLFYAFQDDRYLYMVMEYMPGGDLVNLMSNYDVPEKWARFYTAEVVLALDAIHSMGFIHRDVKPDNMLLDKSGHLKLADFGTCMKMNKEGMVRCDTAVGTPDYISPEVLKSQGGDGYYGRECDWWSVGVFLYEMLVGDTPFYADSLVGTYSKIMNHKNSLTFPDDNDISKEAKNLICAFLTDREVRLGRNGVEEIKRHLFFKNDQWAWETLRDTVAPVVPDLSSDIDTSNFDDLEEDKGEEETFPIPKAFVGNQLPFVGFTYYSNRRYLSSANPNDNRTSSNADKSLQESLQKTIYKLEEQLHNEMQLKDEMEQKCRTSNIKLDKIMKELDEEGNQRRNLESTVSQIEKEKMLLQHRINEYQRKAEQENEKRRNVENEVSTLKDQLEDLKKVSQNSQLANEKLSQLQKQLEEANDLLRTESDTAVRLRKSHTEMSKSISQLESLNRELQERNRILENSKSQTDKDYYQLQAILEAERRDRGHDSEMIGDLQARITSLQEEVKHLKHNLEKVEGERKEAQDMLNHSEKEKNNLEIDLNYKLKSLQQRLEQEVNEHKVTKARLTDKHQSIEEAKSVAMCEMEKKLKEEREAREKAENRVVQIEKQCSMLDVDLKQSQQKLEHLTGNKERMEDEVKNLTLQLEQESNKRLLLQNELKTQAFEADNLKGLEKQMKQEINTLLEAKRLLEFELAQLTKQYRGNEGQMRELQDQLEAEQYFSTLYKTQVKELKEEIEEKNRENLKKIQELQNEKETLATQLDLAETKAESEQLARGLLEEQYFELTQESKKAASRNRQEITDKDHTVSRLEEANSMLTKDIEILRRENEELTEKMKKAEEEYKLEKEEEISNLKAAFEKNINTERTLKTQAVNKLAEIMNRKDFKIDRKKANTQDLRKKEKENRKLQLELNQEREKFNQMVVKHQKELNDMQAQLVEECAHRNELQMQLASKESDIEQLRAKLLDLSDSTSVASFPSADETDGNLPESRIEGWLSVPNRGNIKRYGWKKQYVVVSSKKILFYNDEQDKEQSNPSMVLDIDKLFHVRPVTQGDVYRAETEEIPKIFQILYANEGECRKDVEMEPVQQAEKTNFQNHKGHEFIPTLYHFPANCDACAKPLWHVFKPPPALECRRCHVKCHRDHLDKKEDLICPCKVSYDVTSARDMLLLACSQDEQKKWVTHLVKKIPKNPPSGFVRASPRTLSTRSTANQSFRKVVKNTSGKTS
testDetails: Inhibition of recombinant human ROCK1 (17 to 535 residues) using […] as substrate incubated for 40 mins in presence of [gamma-33P]ATP and 10 uM ATP by radiometric scintillation counting analysis
I only need the number, in nM, no unit after it.

Cc1cc(C(=O)Nc2cccc(NC(=O)COc3ccc4c(=O)ccoc4c3)c2)ccc1C(F)(F)F | 460

q: Provide measured IC50 on UniProtKB Q13464 for Nc1ccc(C(=O)Nc2cccc(NC(=O)COc3ccc4c(=O)ccoc4c3)c2)cc1 please.
a: 802

---

experimentalTarget: Serine/threonine-protein kinase ULK3 (Homo sapiens, UniProt Q6PHR2)
testDetails: Inhibition of recombinant human full length ULK3 using casein as substrate incubated for 40 mins in presence of [gamma33P]ATP by radiometric scintillation counting analysis
assayEndpoint: IC50

q: Under Serine/threonine-protein kinase ULK3 (Homo sapiens, UniProt Q6PHR2): report IC50 of CN(C)c1ccc(C(=O)Nc2cccc(NC(=O)COc3ccc4c(=O)ccoc4c3)c2)cc1 .
a: > 10 µM

---

experimentalTarget: Serine/threonine-protein kinase 26 (Homo sapiens)
testDetails: Inhibition of recombinant human MST4 (4 to 304 residues) using RLGRDKYKTLRQI as substrate measured after 40 mins in presence of [gamma33P]ATP by radiometric scintillation counting analysis
assayEndpoint: IC50

q: Respond only with IC50 recorded for CN(C)c1ccc(C(=O)Nc2cccc(NC(=O)COc3ccc4c(=O)ccoc4c3)c2)cc1
a: > 10 µM

---

experimentalTarget: Cyclin-dependent kinase 5/CDK5 activator 1 (Homo sapiens)
testDetails: Inhibition of recombinant full length human CDK5/p35 using histone H1 as substrate incubated for 40 mins in presence of [gamma-33ATP] by radiometric scintillation counting analysis
Type: protein-complex assay
assayEndpoint: IC50

q: Using the record for CN(C)c1ccc(C(=O)Nc2cccc(NC(=O)COc3ccc4c(=O)ccoc4c3)c2)cc1 , state its measured IC50.
a: > 10 µM

---

experimentalTarget: Mitogen-activated protein kinase 11 (Homo sapiens)
testDetails: Inhibition of recombinant human full length SAPK2b using myelin basic protein as substrate incubated for 40 mins in presence of [gamma33P]ATP by radiometric scintillation counting analysis
assayEndpoint: IC50

q: Tell me measured IC50 for CN(C)c1ccc(C(=O)Nc2cccc(NC(=O)COc3ccc4c(=O)ccoc4c3)c2)cc1 please.
a: > 10 µM

---

experimentalTarget: Ephrin type-B receptor 3 (Homo sapiens)
Sequence (P54753 whole entry, the tested form may be a part): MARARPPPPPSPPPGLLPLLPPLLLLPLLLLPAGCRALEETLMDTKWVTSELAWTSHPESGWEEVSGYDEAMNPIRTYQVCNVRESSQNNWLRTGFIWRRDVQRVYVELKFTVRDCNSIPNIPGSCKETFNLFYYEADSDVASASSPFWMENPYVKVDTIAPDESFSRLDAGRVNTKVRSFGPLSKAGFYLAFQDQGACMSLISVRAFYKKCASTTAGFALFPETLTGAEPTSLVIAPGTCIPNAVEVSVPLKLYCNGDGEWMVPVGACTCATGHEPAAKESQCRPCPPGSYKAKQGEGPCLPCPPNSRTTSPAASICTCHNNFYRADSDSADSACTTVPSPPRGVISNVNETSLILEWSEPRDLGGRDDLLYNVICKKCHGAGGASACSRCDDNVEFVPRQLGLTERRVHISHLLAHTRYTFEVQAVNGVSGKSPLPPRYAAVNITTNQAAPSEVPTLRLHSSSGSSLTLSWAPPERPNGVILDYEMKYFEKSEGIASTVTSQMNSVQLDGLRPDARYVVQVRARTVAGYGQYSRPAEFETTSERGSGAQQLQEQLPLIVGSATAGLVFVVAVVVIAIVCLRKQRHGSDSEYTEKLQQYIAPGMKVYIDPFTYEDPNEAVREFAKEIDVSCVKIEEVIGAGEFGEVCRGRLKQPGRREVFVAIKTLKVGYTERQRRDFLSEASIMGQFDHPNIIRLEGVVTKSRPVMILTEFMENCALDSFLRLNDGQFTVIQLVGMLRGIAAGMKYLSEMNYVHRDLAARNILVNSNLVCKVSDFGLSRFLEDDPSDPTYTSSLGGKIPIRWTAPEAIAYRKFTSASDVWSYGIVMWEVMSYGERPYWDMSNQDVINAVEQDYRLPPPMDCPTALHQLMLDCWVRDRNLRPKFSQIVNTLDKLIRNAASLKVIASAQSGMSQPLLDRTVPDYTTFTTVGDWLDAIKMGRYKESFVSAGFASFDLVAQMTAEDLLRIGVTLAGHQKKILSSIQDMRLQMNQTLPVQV
testDetails: Inhibition of recombinant human EphB3 (599 to 920 residues) using poly(Glu, Tyr) 4:1 as substrate after 40 mins in presence of [gamma-33ATP] by radiometric scintillation counting analysis
assayEndpoint: IC50

q: Check the records and state IC50 for CN(C)c1ccc(C(=O)Nc2cccc(NC(=O)COc3ccc4c(=O)ccoc4c3)c2)cc1
a: > 10 µM

---

experimentalTarget: SRSF protein kinase 2 (Homo sapiens, UniProt P78362)
Sequence (P78362 whole entry): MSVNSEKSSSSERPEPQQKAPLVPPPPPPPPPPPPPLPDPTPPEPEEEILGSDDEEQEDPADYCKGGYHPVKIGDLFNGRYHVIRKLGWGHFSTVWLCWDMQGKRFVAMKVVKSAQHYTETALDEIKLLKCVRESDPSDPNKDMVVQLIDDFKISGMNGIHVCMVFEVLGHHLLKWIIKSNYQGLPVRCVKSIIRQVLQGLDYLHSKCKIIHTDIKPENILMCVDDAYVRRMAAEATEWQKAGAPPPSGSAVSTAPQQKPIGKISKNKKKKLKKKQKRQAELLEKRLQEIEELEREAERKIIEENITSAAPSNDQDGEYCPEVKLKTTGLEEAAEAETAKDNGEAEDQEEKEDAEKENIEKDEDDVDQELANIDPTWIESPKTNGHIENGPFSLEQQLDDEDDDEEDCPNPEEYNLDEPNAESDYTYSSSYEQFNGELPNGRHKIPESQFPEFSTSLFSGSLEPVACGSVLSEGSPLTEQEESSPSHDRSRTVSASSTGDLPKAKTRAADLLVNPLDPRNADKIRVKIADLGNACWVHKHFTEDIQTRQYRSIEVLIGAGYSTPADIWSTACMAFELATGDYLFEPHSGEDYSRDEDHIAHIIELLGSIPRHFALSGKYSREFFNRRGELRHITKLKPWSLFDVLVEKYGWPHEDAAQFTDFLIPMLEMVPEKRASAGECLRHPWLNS
testDetails: Inhibition of recombinant human SRPK2 (46 to end residues) using RSRSRSRSRSRSRSR as substrate incubated for 40 mins in presence of [gamma33P]ATP by radiometric scintillation counting analysis
assayEndpoint: IC50

q: Dear colleague, please send me the reported IC50 for CN(C)c1ccc(C(=O)Nc2cccc(NC(=O)COc3ccc4c(=O)ccoc4c3)c2)cc1 when you can.
a: > 10 µM

---

experimentalTarget: Serine/threonine-protein kinase 3 (Homo sapiens)
Sequence (Q13188 whole entry): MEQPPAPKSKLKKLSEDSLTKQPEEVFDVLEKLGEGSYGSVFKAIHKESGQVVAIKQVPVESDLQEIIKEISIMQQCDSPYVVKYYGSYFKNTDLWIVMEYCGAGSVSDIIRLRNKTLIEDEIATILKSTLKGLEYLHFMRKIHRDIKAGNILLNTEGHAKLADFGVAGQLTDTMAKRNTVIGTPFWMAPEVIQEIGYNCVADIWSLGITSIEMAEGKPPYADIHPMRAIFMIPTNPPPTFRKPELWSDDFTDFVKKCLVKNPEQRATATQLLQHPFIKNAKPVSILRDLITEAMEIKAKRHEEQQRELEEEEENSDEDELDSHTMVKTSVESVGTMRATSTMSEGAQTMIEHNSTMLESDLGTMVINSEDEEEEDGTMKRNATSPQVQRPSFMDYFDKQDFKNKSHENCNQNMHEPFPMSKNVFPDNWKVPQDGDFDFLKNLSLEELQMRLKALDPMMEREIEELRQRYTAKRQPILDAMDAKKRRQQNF
testDetails: Inhibition of recombinant human MST2 (2 to end residues) using myelin basic protein as substrate measured after 40 mins in presence of [gamma33P]ATP by radiometric scintillation counting analysis
assayEndpoint: IC50

q: Give the reported IC50 for this molecule. CN(C)c1ccc(C(=O)Nc2cccc(NC(=O)COc3ccc4c(=O)ccoc4c3)c2)cc1
a: > 10 µM

---

experimentalTarget: Inhibitor of nuclear factor kappa-B kinase subunit beta (Homo sapiens, UniProt O14920)
Sequence (O14920 whole entry): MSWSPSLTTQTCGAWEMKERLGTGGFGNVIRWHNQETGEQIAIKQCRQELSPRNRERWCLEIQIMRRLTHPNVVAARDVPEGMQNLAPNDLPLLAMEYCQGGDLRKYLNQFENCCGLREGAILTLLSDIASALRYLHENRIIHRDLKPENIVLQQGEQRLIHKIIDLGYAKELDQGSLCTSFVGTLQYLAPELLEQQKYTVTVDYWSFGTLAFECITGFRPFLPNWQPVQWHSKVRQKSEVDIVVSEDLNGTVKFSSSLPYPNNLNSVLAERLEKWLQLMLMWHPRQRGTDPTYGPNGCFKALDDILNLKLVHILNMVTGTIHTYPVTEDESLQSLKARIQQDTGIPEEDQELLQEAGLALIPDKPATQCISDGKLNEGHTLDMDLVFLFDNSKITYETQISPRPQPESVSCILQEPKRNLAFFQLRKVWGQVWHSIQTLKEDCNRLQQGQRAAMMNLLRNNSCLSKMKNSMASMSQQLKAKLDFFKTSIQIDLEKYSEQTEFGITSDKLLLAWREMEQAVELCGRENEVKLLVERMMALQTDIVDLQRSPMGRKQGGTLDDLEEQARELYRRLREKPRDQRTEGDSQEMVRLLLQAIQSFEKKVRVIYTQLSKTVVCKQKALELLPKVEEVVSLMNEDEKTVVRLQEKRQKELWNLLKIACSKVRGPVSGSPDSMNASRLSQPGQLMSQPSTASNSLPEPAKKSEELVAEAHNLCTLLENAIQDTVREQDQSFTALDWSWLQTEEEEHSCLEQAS
testDetails: Inhibition of recombinant full length human IKKbeta using peptide substrate after 40 mins by [gamma-33ATP] by radiometric scintillation counting analysis
pIC50: −log10 of the molar value.
assayEndpoint: pIC50

q: Could you please provide reported pIC50 for CN(C)c1ccc(C(=O)Nc2cccc(NC(=O)COc3ccc4c(=O)ccoc4c3)c2)cc1 ? Thanks!
a: < 5.00

---

experimentalTarget: UniProtKB Q96SB4
testDetails: Inhibition of recombinant human SRPK1 (2 to end residues) using RSRSRSRSRSRSRSR as substrate incubated for 40 mins in presence of [gamma33P]ATP by radiometric scintillation counting analysis
assayEndpoint: IC50

q: # return IC50 for CN(C)c1ccc(C(=O)Nc2cccc(NC(=O)COc3ccc4c(=O)ccoc4c3)c2)cc1 , test system: UniProtKB Q96SB4
a: > 10 µM
